Origin of values: ChEMBL document CHEMBL3988442

test system: Leishmania donovani; experiment: Leishmania intramacrophage assay; format: functional, organism-based; settings: Leishmania donovani
experimental_endpoint: IC50 (µM)

>>> experimental_result("Cc1ccc(Oc2c(F)cccc2OC[C@@H](N)CC(C)C)cc1")
12.4
>>> experimental_result("CCCc1ccc(C(C)Nc2ncnc3c2CCNC3)cc1 (stereo unspecified)")
21.6
>>> experimental_result("CCN1CC(CN(C)c2cc(C)nc(N)n2)Oc2ccccc21 (stereo unspecified)")
35.1

* * *

biological target: Coenzyme A biosynthesis bifunctional protein CoaBC (Mycobacterium tuberculosis (strain ATCC 25618 / H37Rv), UniProt P9WNZ1); assay: Biomol Green assay for MtCoaBC inhibitor, OD650 read; type: functional
Sequence (P9WNZ1 whole entry): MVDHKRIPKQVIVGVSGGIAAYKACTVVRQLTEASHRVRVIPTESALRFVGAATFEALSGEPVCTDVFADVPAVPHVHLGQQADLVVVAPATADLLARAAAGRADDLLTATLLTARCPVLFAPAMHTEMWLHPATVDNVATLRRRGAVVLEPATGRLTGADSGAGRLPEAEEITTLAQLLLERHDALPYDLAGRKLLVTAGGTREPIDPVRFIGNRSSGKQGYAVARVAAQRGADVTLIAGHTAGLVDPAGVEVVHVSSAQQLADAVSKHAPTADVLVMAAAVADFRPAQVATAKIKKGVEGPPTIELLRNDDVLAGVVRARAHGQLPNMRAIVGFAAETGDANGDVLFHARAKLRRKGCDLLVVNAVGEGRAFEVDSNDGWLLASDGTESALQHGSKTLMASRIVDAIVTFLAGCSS
pIC50: −log10 of the molar value.
Attribute: pIC50
experimental_endpoint: pIC50

>>> experimental_result("CC(C)COCC(NC(=O)c1cnccn1)c1ccco1 (stereo unspecified)")
"< 4.52"
>>> experimental_result("COCCNC(=O)c1nc2c(s1)CCCN2c1ccc(C)nn1")
"< 4.52"
>>> experimental_result("COc1ccc(-n2cc(CNC(=O)c3ccc[nH]3)nn2)cc1")
"< 4.52"
>>> experimental_result("O=C(NCC1CC1)[C@H]1C[C@@H]2CN(S(=O)(=O)Cc3ccccc3)C[C@H]1O2")
"< 4.52"
>>> experimental_result("COc1ccccc1C1CC(=O)Nc2c1c(=O)[nH]n2C1CCCC1 (stereo unspecified)")
"< 4.52"
>>> experimental_result("CCc1ncncc1C(=O)NCCNS(=O)(=O)c1ccccc1")
"< 4.30"
>>> experimental_result("Cc1ccc(C(=O)O)cc1CNC(=O)CN1CC[C@](C)(O)C(C)(C)C1")
"< 4.52"
>>> experimental_result("NC(=O)C1CN(C(=O)Nc2ccccc2Oc2ccccc2Cl)CCO1 (stereo unspecified)")
"< 4.52"
>>> experimental_result("CCC(c1ccc(F)cc1F)N1CCN(CCO)CC1 (stereo unspecified)")
"< 4.52"
>>> experimental_result("CC(NC(=O)CSCC(N)=O)c1ccc(Oc2ccccc2)cc1 (stereo unspecified)")
"< 4.52"
>>> experimental_result("Cc1cc(C)cc(-n2ncc3c2CCCC3N)c1 (stereo unspecified)")
"< 4.52"

* * *

test: To identify inhibition of the IFN signalling (Jak-Stat) pathway via expression of an eGFP reporter gene under the control of an IFN-stimulated response element (ISRE) containing MxA promoter.; format: functional, Homo sapiens
Attribute: pIC50
experimental_endpoint: pIC50

>>> experimental_result("CN(Cc1ccco1)[C@@H]1CN(C(=O)c2ccnnc2)[C@@H]2CCCO[C@H]12.O=C(O)C(F)(F)F")
"< 4.21"
>>> experimental_result("CCC(C)NC(=O)NCCCn1nc2ccccn2c1=O (stereo not given)")
"< 4.21"
>>> experimental_result("CCS(=O)(=O)N1CCc2ccc(NC(=O)Nc3cccc(SC)c3)cc21")
"5.726 [middle of 4 runs]"
>>> experimental_result("COCC1CCCN(C(=O)c2cc(Cn3ccc4ccccc43)[nH]n2)C1 (stereo not given)")
"< 4.21"
>>> experimental_result("Cc1cnn(CC2CN(c3ncnc4ccsc34)CCO2)c1 (stereo not given)")
"5.764 [middle of 4 runs]"

* * *

assay: In vitro enzyme assay to detect hydrolysis of chlorophenol red-beta-D-[…] directly proportional to the number of Toxoplasma stably expressing beta-galactosidase; format: functional, organism-based, Toxoplasma gondii; conditions: Toxoplasma gondii
pIC50: −log10 of the molar value.
experimental_endpoint: pIC50

>>> experimental_result("O[C@@H]1CN(c2nc3ccccc3s2)CC[C@H]1c1ccc2c(c1)OCO2")
5.28
>>> experimental_result("CC(C)C(=O)N1CCN(c2ncnc3cc4c(cc23)OCCO4)CC1")
"< 4.30"
>>> experimental_result("Fc1ccccc1CN1CCn2ccnc2C1")
"< 4.30"
>>> experimental_result("COc1ccc(C)cc1CC(=O)N1CCN(C)CC1")
"< 4.30"
>>> experimental_result("Cc1ccc(CN(C)C(=O)Cn2cnnn2)o1")
"< 4.30"
>>> experimental_result("Cc1cc(C(=O)N2CCN(c3nc4c(C(C)C)cccc4s3)CC2)on1")
"< 4.60"
>>> experimental_result("Clc1cccc(-c2cccc(N3CCC(NC4CCOCC4)CC3)c2)c1")
4.84
>>> experimental_result("CCCc1nc(NCCCOC)c2c(n1)c(C)nn2CC")
4.47
>>> experimental_result("NCCC1CSc2ccccc2O1 (configuration not stated)")
"< 4.30"
>>> experimental_result("Cn1nnnc1SCCNC(=O)c1cc(Cl)ccc1F")
"< 4.30"
>>> experimental_result("CCNc1ncc2c(n1)CN(c1cccc(OC)c1)C2=O")
"< 4.30"
>>> experimental_result("COc1cccc(-c2noc(C3CCN(Cc4ccccc4C)C3)n2)c1 (configuration not stated)")
5.00
